# tgt: BRM (Homo sapiens, UniProt P51531)
# Construct: made in house; host or cells: High Five insect cells
# Sequence (P51531 whole entry): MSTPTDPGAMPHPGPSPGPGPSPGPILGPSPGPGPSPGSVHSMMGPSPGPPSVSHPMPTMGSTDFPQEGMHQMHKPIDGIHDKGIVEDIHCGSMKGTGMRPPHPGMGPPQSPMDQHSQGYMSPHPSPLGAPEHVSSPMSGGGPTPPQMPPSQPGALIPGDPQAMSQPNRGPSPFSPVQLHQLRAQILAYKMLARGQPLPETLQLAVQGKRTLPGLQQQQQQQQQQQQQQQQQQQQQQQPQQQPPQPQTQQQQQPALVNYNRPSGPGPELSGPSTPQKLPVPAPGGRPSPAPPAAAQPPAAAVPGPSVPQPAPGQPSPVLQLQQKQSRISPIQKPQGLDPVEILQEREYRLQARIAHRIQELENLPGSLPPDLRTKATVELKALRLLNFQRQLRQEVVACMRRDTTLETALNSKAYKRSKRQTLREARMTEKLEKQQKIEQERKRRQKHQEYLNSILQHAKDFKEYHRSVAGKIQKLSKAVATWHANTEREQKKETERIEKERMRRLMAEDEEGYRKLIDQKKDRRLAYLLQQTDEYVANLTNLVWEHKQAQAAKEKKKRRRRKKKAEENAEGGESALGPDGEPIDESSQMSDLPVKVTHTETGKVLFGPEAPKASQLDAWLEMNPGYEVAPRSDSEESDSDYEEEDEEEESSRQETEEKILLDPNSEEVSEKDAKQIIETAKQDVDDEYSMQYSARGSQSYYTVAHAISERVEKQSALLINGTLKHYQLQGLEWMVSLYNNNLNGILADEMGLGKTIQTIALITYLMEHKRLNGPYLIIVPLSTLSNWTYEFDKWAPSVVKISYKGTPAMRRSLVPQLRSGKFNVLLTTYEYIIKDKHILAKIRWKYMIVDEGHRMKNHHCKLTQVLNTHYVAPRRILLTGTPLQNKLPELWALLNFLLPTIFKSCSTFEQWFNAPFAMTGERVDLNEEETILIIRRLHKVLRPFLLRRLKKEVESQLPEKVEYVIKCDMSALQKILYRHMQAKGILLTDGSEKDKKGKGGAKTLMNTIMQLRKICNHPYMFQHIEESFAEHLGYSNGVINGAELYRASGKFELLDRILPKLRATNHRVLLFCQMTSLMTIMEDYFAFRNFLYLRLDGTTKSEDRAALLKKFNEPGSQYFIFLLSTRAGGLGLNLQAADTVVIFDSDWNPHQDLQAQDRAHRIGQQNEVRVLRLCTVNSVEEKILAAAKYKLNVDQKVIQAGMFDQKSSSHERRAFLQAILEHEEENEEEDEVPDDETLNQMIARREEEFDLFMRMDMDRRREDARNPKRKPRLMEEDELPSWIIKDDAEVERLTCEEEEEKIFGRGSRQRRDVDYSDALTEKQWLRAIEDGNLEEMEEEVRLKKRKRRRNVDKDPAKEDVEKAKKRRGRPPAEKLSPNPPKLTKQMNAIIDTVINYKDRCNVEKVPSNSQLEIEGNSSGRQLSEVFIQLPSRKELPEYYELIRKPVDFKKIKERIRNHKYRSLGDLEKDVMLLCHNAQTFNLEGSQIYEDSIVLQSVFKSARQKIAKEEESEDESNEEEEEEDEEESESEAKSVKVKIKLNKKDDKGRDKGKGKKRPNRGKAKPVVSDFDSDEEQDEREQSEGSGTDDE
# method: ATPase catalytic activity of BRM, ADP-Glo in vitro biochemical assay
# setup-conditions: ATPase catalytic activity, ADP-Glo; 30 nM BRM, 400 μM ATP
pIC50: −log10 of the molar value.
measurement-label: pIC50

>>> reported_value("Cc1cnc2c(c1)CCCN2c1ccc2cnc(CNC(=O)c3ccc4c(c3)S(=O)(=O)CCCO4)cc2n1 [Compound 514]")
7.23
>>> reported_value("CN1C(=O)CN(c2ccc3cnc(CNC(=O)c4ccc5c(c4)S(=O)(=O)CCOC5)cc3n2)c2ccccc21 [Compound 511]")
6.48

I. O=C(NCc1cc2nc(-c3ccc4c(n3)N3CCOCC3C4)ccc2cn1)c1ccc2c(c1)S(=O)(=O)CCOC2 (stereo not shown) [Compound 466]
II. CO[C@H]1CCN(c2cccc(-c3ccc4cnc(CNC(=O)c5ccc6c(c5)S(=O)(=O)CCOC6)cc4n3)n2)C[C@H]1C [Compound 437]
Challenge: // pick min by pIC50: I , II Refer to your chosen entry by its label in the reply.
Response given: I

----------
# tgt: BRM (Homo sapiens)
# Construct: made in house; host or cells: High Five insect cells
# method: ATPase catalytic activity of BRM, ADP-Glo in vitro biochemical assay
# setup-conditions: ratio of BRG1 IC50 to BRM IC50
measurement-label: Ratio*

Recorded Ratio*, per entry:
>>> reported_value("CCOc1ccc2c(n1)N(c1ccc3cnc(CNC(=O)c4ccc5c(c4)S(=O)(=O)CCOC5)cc3n1)CCC2")
18.86
>>> reported_value("O=C(NCc1cc2nc(-n3cc(F)c(N4CCOCC4)n3)ccc2cn1)c1ccc2c(c1)S(=O)(=O)CCOC2")
6.49
>>> reported_value("C[C@@H]1CN(c2cccc(-c3ccc4cnc(CNC(=O)c5ccc6c(c5)S(=O)(=O)CC[C@H](C)O6)cc4n3)n2)C[C@H](C)O1")
14.19
>>> reported_value("O=C(NCc1cc2nc(-n3cccc(N4CCOCC4)c3=O)ccc2cn1)c1ccc2c(c1)S(=O)(=O)CCOC2")
3.79
>>> reported_value("C[C@@H]1CN(c2cccc(-c3ccc4cnc(CNC(=O)c5cnc6c(c5)S(=O)(=O)CCCCC6)cc4n3)n2)C[C@H](C)O1")
1.60
>>> reported_value("O=C(NCc1cc2nc(-c3cccc(N(CC4COC4)C4CC4)n3)ccc2cn1)c1ccc2c(c1)S(=O)(=O)CCOC2")
6.45

a. C[C@H]1COCc2ccc(C(=O)NCc3cc4nc(N5CCCc6cc(N(C)C)cnc65)ccc4cn3)cc2S1(=O)=O
b. C[C@H]1COCc2ncc(C(=O)NCc3cc4nc(-c5cccc(C6CC6)n5)ccc4cn3)cc2S1(=O)=O
Challenge: // pick min by Ratio*: a , b Refer to your chosen entry by its label in the reply.
Response given: a
(a: 9.04, b: 21.77)

A. COc1cc2c(nc1C)N(c1ccc3cnc(CNC(=O)c4ccc5c(c4)S(=O)(=O)CCOC5)cc3n1)CCC2
B. O=C(NCc1cc2nc(N3CCCc4ccc(N5CCC5)nc43)ccc2cn1)c1ccc2c(c1)S(=O)(=O)CCOC2
C. COc1cccc2c1CCCN2c1ccc2cnc(CNC(=O)c3ccc4c(c3)S(=O)(=O)CCOC4)cc2n1
Challenge: Put these in order: smallest Ratio* first, largest last. Give the labels in the order requested.
Response given: C, A, B

a. CO[C@H]1C[C@H]1N(C)c1cccc(-c2ccc3cnc(CNC(=O)c4ccc5c(c4)S(=O)(=O)CCOC5)cc3n2)n1
b. CN(C)c1cnc2c(c1)CCCN2c1ccc2cnc(CNC(=O)c3ccc4c(c3)S(=O)(=O)CCOC4)cc2n1
Challenge: // max by Ratio* over [ a , b ] Refer to your chosen entry by its label in the reply.
Response given: a

a. C[C@@H]1CN(c2cccc(-c3ccc4cnc(CNC(=O)c5ccc6c(c5)S(=O)(=O)[C@H](C)CN6C)cc4n3)n2)C[C@H](C)O1
b. CCOCc1ccc2c(n1)N(c1ccc3cnc(CNC(=O)c4ccc5c(c4)S(=O)(=O)CCOC5)cc3n1)CCC2
c. C[C@@H]1CN(c2cccc(-c3ccc4cnc(CNC(=O)c5ccc6c(c5)S(=O)(=O)CCCOC6)cc4n3)n2)C[C@H](C)O1
Challenge: List from greatest to least Ratio*. Give the labels in the order requested.
Response given: b, a, c

a. O=C(NCc1cc2nc(N3CCOc4cc(C(F)F)ccc43)ccc2cn1)c1ccc2c(c1)S(=O)(=O)CCOC2
b. COCCN1c2cccc(-c3ccc4cnc(CNC(=O)c5ccc6c(c5)S(=O)(=O)CCOC6)cc4n3)c2OCC1C (stereo not drawn)
Challenge: // max by Ratio* over [ a , b ] Refer to your chosen entry by its label in the reply.
Response given: a
(a: 12.29, b: 8.22)

P. Cn1c(C(F)F)cc2c(-c3ccc4cnc(CNC(=O)c5ccc6c(c5)S(=O)(=O)CCOC6)cc4n3)ccnc21
Q. CN1CCCc2ccc(-c3ccc4cnc(CNC(=O)c5ccc6c(c5)S(=O)(=O)CCOC6)cc4n3)nc21
Challenge: // max by Ratio* over [ P , Q ] Refer to your chosen entry by its label in the reply.
Response given: P

a. C[C@@H]1CN(c2cccc(-c3ccc4cnc(CNC(=O)c5ccc6c(c5)S(=O)(=O)CC[C@@H](C5CC5)O6)cc4n3)n2)C[C@H](C)O1
b. O=C(NCc1cc2nc(N3CCCc4ccc(C(F)(F)F)nc43)ccc2cn1)c1ccc2c(c1)S(=O)(=O)CCOC2
Challenge: // max by Ratio* over [ a , b ] Refer to your chosen entry by its label in the reply.
Response given: a
(a: 13.59, b: 8.32)

----------
# tgt: BRM (Homo sapiens)
# Construct: made in house; host or cells: High Five insect cells
# method: ATPase catalytic activity of BRM, ADP-Glo in vitro biochemical assay
# setup-conditions: ratio of BRG1 IC50 to BRM IC50
measurement-label: Ratio*

Recorded Ratio*, per entry:
>>> reported_value("C[C@@H]1CN(c2cccc(-c3ccc4cnc(CNC(=O)c5ccc6c(c5)S(=O)(=O)CC[C@@H](C(F)F)O6)cc4n3)n2)C[C@H](C)O1")
15.23
>>> reported_value("CN(C[C@@H]1CCO1)c1cccc(-c2ccc3cnc(CNC(=O)c4ccc5c(c4)S(=O)(=O)CCOC5)cc3n2)n1")
13.22
>>> reported_value("COCc1ccc2c(n1)N(c1ccc3cnc(CNC(=O)c4ccc5c(c4)S(=O)(=O)CCOC5)cc3n1)CCC2")
32.29
>>> reported_value("O=C(NCc1cc2nc(-c3cccc(OC4CC4(F)F)n3)ccc2cn1)c1ccc2c(c1)S(=O)(=O)CCOC2 (stereo not shown)")
9.12
>>> reported_value("CC1CN(c2cccc(-c3ccc4cnc(CNC(=O)c5ccc6c(c5)S(=O)(=O)C(C)CN6C)cc4n3)n2)CC(C)O1 (stereo not shown) [Compound 498]")
16.52

A. COc1nc(C(F)F)ccc1-c1ccc2cnc(CNC(=O)c3cc(F)c4c(c3)S(=O)(=O)CCOC4)cc2n1
B. C[C@@H]1CN(c2cccc(-c3ccc4cnc(CNC(=O)c5cc(Cl)c6c(c5)S(=O)(=O)[C@@H](C)COC6)cc4n3)n2)C[C@H](C)O1
Challenge: // max by Ratio* over [ A , B ] Refer to your chosen entry by its label in the reply.
Response given: A
(A: 17.03, B: 9.43)

----------
# tgt: BRM (Homo sapiens)
# Construct: made in house; host or cells: High Five insect cells
# method: ATPase catalytic activity of BRM, ADP-Glo in vitro biochemical assay
# setup-conditions: ADP-Glo ATPase assay, 30 nM BRM, 400 μM ATP
# Method: The ATPase catalytic activity of BRM or BRG-1 was measured by an in vitro biochemical assay using ADP-Glo™ (Promega, V9102). The ADP-Glo™ kinase assay is performed in two steps once the reaction is complete. The first step is to deplete any unconsumed ATP in the reaction. The second step is to convert the reaction product ADP to ATP, which will be utilized by the luciferase to generate luminesce and be detected by a luminescence reader, such as Envision. […]
pIC50: −log10 of the molar value.
measurement-label: pIC50

Recorded pIC50, per entry:
>>> reported_value("O=C(NCc1cc2nc(-c3cccc4c3OCCN4CC(F)F)ccc2cn1)c1ccc2c(c1)S(=O)(=O)CCOC2")
7.15
>>> reported_value("CS(=O)(=O)c1cc(C(=O)NCc2cc3nc(-c4cccc(N5CC[C@@H]6COC[C@@H]6C5)n4)ccc3cn2)ccc1Cl")
7.11

1. CCc1cc(C(=O)NCc2cc3nc(-c4cccc(N5C[C@@H](C)O[C@@H](C)C5)n4)ccc3cn2)cc2c1COCCS2(=O)=O
2. COc1cnc2c(c1)CCN2c1ccc2cnc(CNC(=O)c3ccc4c(c3)S(=O)(=O)CCOC4)cc2n1
3. C[C@@H]1CN(c2cccc(-c3ccc4cnc(CNC(=O)c5ccc(Cl)c(S(C)(=O)=O)c5)cc4n3)n2)C[C@@H](C)O1
4. CC1(c2cnc3c(c2)OCCN3c2ccc3cnc(CNC(=O)c4ccc5c(c4)S(=O)(=O)CCOC5)cc3n2)CC1
5. O=C(NCc1cc2nc(N3CCOc4ccc(C5(F)CC5(F)F)nc43)ccc2cn1)c1ccc2c(c1)S(=O)(=O)CCOC2 (stereo not shown)
Challenge: Put these in order: smallest pIC50 first, largest last. Give the labels in the order requested.
Response given: 5, 1, 2, 3, 4
(5: 6.91, 1: 7.14, 2: 7.43, 3: 7.80, 4: 8.07)
